Origin of values: patent US9840512B2

- tested system: human GPR40 (Homo sapiens)
- Sequence (O14842 whole entry): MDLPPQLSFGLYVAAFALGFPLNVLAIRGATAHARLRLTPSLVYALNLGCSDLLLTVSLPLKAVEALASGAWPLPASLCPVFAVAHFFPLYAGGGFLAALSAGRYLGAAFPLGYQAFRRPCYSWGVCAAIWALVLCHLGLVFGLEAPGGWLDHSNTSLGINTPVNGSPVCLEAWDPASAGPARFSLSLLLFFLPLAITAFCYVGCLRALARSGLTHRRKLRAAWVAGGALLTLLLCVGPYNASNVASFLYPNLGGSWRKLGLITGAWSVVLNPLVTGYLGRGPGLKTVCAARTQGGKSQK
- protocol text: Inositol Phosphate Turnover (IP1) Assay 2
- Type: cell-based
- Set-up: expressed in transfected cells
- assay setup: HEK cells stably expressing human GPR40, Table 2, read-out: Human IP1
reported property: EC50 (nM)

Please review the following examples before continuing.
compound	EC50 [nM]
COc1ccc(F)c(-c2ccc(C3CCc4ccc(C(C)CC(=O)O)cc4O3)cc2)c1 (single isomer, unassigned) [Example 139]	116
COc1ccc(F)c(-c2ccc([C@H]3CCc4ccc([C@H](CC(=O)O)C5CCC5)cc4O3)cc2)c1 (single isomer, unassigned)	660
COc1ccc(F)c(-c2ccc(C3CCc4ccc([C@H](C5CC5)[C@@H](C)C(=O)O)cc4O3)cc2)c1 (single isomer, unassigned) [Example 65]	51
C[C@H](C(=O)O)[C@H](c1ccc2c(c1)OC(c1ccc(-c3cc(O)ccc3F)cc1)CC2)C1CC1 (single isomer, unassigned) [Example 68]	1.9

A: COc1ccc(F)c(-c2ccc(C3CCc4ccc(C(C)C(C)C(=O)O)cc4O3)cc2)c1 (single isomer, unassigned) [Example 143]
B: C[C@H](C(=O)O)[C@H](c1ccc2c(c1)OC(c1ccc(-c3cc(O)ccc3F)cn1)CC2)C1CC1 (mixture of isomers)
// max by EC50 over [ A , B ] Mark your selection by writing its label.
A
